Tgt: EGFR exon 20 ASV Ins V769_D770 (Ba/F3 cells) (Homo sapiens, UniProt P00533, INS769ASV)
Construct: expressed in transfected cells; host or cells: Ba/F3 (murine pro-B cells), retroviral transduction, puromycin selection, IL3-independent pool
Sequence (P00533 with tags, fused parts or gaps INS769ASV): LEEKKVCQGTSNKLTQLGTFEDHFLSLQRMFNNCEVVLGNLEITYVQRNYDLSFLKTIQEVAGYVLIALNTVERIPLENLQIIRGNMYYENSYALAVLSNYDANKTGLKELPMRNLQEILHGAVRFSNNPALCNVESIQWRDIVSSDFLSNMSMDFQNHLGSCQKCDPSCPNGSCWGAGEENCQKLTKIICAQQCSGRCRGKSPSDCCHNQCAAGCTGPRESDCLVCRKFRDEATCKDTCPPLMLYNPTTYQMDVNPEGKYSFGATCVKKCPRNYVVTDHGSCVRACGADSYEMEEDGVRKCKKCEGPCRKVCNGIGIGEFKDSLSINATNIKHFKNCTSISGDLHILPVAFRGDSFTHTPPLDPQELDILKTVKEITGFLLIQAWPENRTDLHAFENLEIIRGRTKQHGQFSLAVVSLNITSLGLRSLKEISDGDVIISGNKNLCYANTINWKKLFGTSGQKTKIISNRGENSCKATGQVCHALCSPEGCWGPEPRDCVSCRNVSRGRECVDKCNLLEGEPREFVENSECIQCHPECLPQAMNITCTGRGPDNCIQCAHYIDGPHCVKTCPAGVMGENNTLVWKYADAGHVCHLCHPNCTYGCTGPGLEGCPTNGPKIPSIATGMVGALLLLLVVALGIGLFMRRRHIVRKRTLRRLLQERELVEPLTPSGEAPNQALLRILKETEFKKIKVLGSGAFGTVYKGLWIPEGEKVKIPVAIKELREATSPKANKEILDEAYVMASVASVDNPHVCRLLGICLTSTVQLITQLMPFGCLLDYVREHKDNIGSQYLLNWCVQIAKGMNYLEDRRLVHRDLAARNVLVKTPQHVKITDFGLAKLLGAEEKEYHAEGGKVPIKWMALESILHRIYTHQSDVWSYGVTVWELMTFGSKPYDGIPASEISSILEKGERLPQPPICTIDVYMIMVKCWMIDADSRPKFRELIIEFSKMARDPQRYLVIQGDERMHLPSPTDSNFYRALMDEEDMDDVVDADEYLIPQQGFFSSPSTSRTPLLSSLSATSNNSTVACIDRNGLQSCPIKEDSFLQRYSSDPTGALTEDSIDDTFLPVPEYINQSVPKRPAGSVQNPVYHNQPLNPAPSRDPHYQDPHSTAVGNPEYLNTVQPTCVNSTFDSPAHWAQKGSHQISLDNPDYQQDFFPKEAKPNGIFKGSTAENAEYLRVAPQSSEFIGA
Assay details: Inhibitor activity on EGFR phosphorylation (pEGFR AlphaLISA, 2 h), Ba/F3 EGFR exon 20 ASV Ins
Assay type: cell-based
Particulars: EGFR phosphorylation, AlphaLISA, 2 hours; read-out: ASV IC50 (pEGFR)
Reported values of IC50 for individual entries

Please review the entries below; each comes with its answer.
Q: Report IC50 for COc1c(F)cccc1Nc1c(-c2ccnc(N)c2F)[nH]c2c1C(=O)NCC2 please.
A: 100 to 1000 nM

Q: Also Nc1nccc(-c2[nH]c3c(c2Nc2ccccc2)C(=O)NCC3)n1 , if possible.
A: 100 to 1000 nM

Q: Also COCC[C@H]1CNC(=O)c2c1[nH]c(-c1ccnc(C)n1)c2Nc1cccc(Cl)c1OC [463b] , if possible.
A: < 100 nM

Q: Also Nc1nccc(-c2[nH]c3c(c2Nc2cccc(Cl)c2)C(=O)NCC3)n1 , if possible.
A: < 100 nM

Q: Also COCC[C@@H]1CNC(=O)c2c1[nH]c(-c1ccnc(N)n1)c2Nc1cccc(Cl)c1OC , if possible.
A: < 100 nM

***
Q: Report IC50 for Nc1nccc(-c2[nH]c3c(c2Nc2ccc(Cl)cc2)C(=O)NCC3)n1 please.
A: > 1000 nM

Q: Also CCOc1c(F)cccc1Nc1c(-c2ccnc(N)n2)[nH]c2c1C(=O)NCC2 , if possible.
A: 100 to 1000 nM

---

Reported values of IC50 for individual entries
Tgt: EGFR exon 20 SVD Ins D770_N771 (Ba/F3 cells) (Homo sapiens, UniProt P00533, INS770SVD)
Construct: expressed in transfected cells; host or cells: Ba/F3 (murine pro-B cells), retroviral transduction, puromycin selection, IL3-independent pool
Sequence (P00533 with tags, fused parts or gaps INS770SVD): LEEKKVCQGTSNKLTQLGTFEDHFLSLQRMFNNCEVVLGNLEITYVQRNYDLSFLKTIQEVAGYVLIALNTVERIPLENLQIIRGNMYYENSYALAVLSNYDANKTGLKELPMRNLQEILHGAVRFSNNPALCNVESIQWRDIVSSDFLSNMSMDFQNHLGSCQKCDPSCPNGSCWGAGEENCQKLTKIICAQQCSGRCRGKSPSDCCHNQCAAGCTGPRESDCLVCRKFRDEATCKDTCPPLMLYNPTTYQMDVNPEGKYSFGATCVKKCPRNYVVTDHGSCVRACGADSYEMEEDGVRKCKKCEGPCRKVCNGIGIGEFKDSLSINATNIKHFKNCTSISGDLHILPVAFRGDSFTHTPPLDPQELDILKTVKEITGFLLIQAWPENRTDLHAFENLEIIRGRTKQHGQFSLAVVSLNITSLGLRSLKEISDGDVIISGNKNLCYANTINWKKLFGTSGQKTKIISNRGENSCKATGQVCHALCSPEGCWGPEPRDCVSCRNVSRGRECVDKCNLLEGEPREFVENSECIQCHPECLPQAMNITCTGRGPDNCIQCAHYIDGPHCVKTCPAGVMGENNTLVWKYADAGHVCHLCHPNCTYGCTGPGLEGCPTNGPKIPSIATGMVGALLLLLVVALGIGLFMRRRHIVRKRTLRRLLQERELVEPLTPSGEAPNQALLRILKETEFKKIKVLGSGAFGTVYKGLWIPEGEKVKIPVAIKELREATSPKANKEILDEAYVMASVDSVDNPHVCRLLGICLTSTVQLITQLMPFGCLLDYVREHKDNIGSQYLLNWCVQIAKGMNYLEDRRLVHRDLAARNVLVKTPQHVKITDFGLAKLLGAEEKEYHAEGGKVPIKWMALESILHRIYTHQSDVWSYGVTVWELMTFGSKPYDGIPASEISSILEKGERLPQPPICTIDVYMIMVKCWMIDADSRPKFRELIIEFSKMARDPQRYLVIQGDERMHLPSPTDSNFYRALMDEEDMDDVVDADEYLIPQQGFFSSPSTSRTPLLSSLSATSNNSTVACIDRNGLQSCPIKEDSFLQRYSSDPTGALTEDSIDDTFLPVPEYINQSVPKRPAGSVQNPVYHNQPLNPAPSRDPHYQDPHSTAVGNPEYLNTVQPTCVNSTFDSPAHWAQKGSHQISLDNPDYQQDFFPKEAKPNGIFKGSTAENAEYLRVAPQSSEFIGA
Assay details: Inhibitor activity on EGFR-dependent cell growth (CellTiter-Glo, 72 h), Ba/F3 EGFR exon 20 SVD Ins
Format: cell-based
Particulars: read-out: BaF3 SVD IC50

Q: Report IC50 for CNc1nccc(-c2[nH]c3c(c2Nc2cccc(Cl)c2OC)C(=O)NCC3)n1 please.
A: < 100 nM

Q: Also COCCOc1ccc2nccc(-c3[nH]c4c(c3Nc3cccc(Cl)c3OC)C(=O)NCC4)c2n1 , if possible.
A: < 100 nM

Q: Also COc1c(Cl)cccc1Nc1c(-c2ccnc3ccc(OC4(C)CC4)nc23)[nH]c2c1C(=O)NC[C@H]2C (single isomer, unassigned) , if possible.
A: < 100 nM

Q: Also COc1c(F)cccc1Nc1c(-c2ccnc3cnc(N4CCN(C(=O)/C=C/CN(C)C)CC4)nc23)[nH]c2c1C(=O)NCC2 , if possible.
A: < 100 nM

Q: Also Nc1nccc(-c2[nH]c3c(c2Nc2cccc4scnc24)C(=O)NCC3)n1 , if possible.
A: > 1000 nM

Q: Also Cc1ccc2nccc(-c3[nH]c4c(c3Nc3cccc(F)c3C)C(=O)NCC4)c2n1 , if possible.
A: < 100 nM

Q: Also COc1c(Cl)cccc1Nc1c(-c2ccnc(NC3CC3)n2)[nH]c2c1C(=O)NCC2 , if possible.
A: 100 to 1000 nM

Q: Also COc1c(F)cccc1Nc1c(-c2ccnc(C)n2)[nH]c2c1C(=O)NCC2C[C@@H]1COCCO1 (single isomer, unassigned) [Compound 605] , if possible.
A: 100 to 1000 nM

Q: Also COc1nn(C)cc1Nc1nccc(-c2[nH]c3c(c2Nc2cccc(Cl)c2OC)C(=O)NCC3)n1 , if possible.
A: < 100 nM

Q: Also Cc1c(C#N)cccc1Nc1c(-c2ccnc(N)n2)[nH]c2c1C(=O)NCC2 , if possible.
A: > 1000 nM

***
Q: Report IC50 for CNc1nccc(-c2[nH]c3c(c2Nc2cccc(F)c2OC)C(=O)NCC3)n1 please.
A: 100 to 1000 nM

Q: Also COc1c(F)cccc1Nc1c(-c2ccncn2)[nH]c2c1C(=O)NC[C@@H]2C[C@@H]1COCCO1 , if possible.
A: 100 to 1000 nM

Q: Also COc1c(F)cccc1Nc1c(-c2ccnc(C)c2)[nH]c2c1C(=O)NCC2 , if possible.
A: > 1000 nM

Q: Also Cc1cc(F)ccc1Nc1c(-c2ccnc(N)n2)[nH]c2c1C(=O)NCC2 , if possible.
A: > 1000 nM
